Attribution: PubChem BioAssay (NCI)

Field: TGI. Provide a value for each of the compounds that follow.
Tested on: SK-MEL-5 melanoma
Assay: NCI tumour cell line growth inhibition, 48 h

Inquiry: Which TGI is reported with SK-MEL-5 melanoma for this entry: Cc1cn(S(=O)(=O)c2ccccc2)c2c(OCc3ccccc3)cc(NC(=O)c3cc4cc([N+](=O)[O-])ccc4s3)cc12 ?
Reply text: > 100 µM

Inquiry: What measured TGI is associated with N#Cc1cc(S(=O)(=O)Nc2nc3ccccc3o2)c(SCc2ccccc2)cc1Cl on SK-MEL-5 melanoma?
Reply text: 31.9 µM

Inquiry: Return TGI measured with SK-MEL-5 melanoma given this compound: O/N=C/c1ccc(O)c(O)c1
Reply text: > 100 µM

Inquiry: Give TGI (SK-MEL-5 melanoma) of the following compound: CCCCN(CCCC)CC(C(C)=O)C(c1ccccc1)c1c(O)c2ccccc2oc1=O (stereo unspecified)
Reply text: > 100 µM

Inquiry: Request: TGI, test system SK-MEL-5 melanoma, entry CSc1ncc2c(n1)-c1ccccc1OC2NC1CC1 (stereo unspecified)
Reply text: > 100 µM

Inquiry: Look up TGI with SK-MEL-5 melanoma for this compound: CCCn1cc2c3c(cccc31)C1C=C(C)CN(C)C1C2 (stereo unspecified)
Reply text: 38.3 µM

Inquiry: Which measured TGI belongs to CCC1([N+](=O)[O-])CN(N=O)C1 , tested on SK-MEL-5 melanoma?
Reply text: > 100 µM

Inquiry: Look up TGI with SK-MEL-5 melanoma for this compound: Nc1ccc(/C=C/c2ccc3cccnc3c2)cc1
Reply text: > 100 µM

Inquiry: Kindly state the measured TGI obtained for CC(C)=CCc1c(O)cc2oc(-c3ccc(O)cc3O)cc(=O)c2c1O with SK-MEL-5 melanoma.
Reply text: 38.7 µM

Inquiry: Provide value of TGI for this record tested with SK-MEL-5 melanoma: Cn1c(=O)cc(NNc2ccc(Cl)c(Cl)c2)[nH]c1=O
Reply text: 19.3 µM

Inquiry: # value lookup — system SK-MEL-5 melanoma, readout TGI, item CC1=CCCC2C(C=O)(C1)CC(C)C2(CO)CC/C(=C/CO)CO (stereo unspecified)
Reply text: > 100 µM

----------
System: SF-268 CNS
Assay: NCI tumour cell line growth inhibition, 48 h
Result type: TGI (µM)
Report only the number, with the unit µM understood.

Inquiry: Which measured TGI value corresponds to COc1cc(NCCCCCN=C(N)NC(N)=NC(C)C)c2ncccc2c1 ?
Reply text: 13.8

Inquiry: Endpoint output: TGI of COc1ccc2[nH]c(C(=O)OCc3ccc4c(Cl)cc(Cl)c(O)c4n3)cc2c1 . Value?
Reply text: 2.77

Inquiry: Quick check: TGI of COc1cc(CNc2oc(-c3ccccc3)c(-c3ccccc3)c2C#N)cc(CN2CCN(C)CC2)c1O ?
Reply text: 3.7

----------
Give GI50 for every item shown.
System: EKVX NSCLC
Test: NCI tumour cell line growth inhibition, 48 h

Inquiry: What value of measured GI50 is listed for Cc1cccc2c1[nH]c(=O)c1c3ccccc3cn21 ?
Reply text: 5610 nM

Inquiry: Entry CNC(=O)c1cncc(/C=C/c2ccccc2Cl)c1 : reported GI50 = ?
Reply text: > 25000 nM

Inquiry: Would you kindly share the measured GI50 for O=C(Nc1cccc(C(F)(F)F)c1)Oc1ccc(Cl)c2cccnc12 ?
Reply text: 1830 nM

Inquiry: Please report the recorded GI50 for CC[PH+](CC)CC.[Cl][Au] .
Reply text: 1420 nM

Inquiry: Quick one: GI50 of CC(C)c1ccc(NC(=O)Cc2ccc(Nc3ncnc4cc(-c5cnn(CCN(C)C)c5)ccc34)cc2)cc1 ?
Reply text: 2420 nM

Inquiry: Reported GI50 for O=c1[nH]c(=O)n(C2CC(O)C(CO)O2)cc1C(F)(F)F (stereo unspecified) : what is it?
Reply text: > 54100 nM
